# tested_on: hERG channel (Homo sapiens)
# Construct: expressed in transfected cells; host or cells: CHO (Chinese hamster ovary)
# Sequence (Q12809 whole entry): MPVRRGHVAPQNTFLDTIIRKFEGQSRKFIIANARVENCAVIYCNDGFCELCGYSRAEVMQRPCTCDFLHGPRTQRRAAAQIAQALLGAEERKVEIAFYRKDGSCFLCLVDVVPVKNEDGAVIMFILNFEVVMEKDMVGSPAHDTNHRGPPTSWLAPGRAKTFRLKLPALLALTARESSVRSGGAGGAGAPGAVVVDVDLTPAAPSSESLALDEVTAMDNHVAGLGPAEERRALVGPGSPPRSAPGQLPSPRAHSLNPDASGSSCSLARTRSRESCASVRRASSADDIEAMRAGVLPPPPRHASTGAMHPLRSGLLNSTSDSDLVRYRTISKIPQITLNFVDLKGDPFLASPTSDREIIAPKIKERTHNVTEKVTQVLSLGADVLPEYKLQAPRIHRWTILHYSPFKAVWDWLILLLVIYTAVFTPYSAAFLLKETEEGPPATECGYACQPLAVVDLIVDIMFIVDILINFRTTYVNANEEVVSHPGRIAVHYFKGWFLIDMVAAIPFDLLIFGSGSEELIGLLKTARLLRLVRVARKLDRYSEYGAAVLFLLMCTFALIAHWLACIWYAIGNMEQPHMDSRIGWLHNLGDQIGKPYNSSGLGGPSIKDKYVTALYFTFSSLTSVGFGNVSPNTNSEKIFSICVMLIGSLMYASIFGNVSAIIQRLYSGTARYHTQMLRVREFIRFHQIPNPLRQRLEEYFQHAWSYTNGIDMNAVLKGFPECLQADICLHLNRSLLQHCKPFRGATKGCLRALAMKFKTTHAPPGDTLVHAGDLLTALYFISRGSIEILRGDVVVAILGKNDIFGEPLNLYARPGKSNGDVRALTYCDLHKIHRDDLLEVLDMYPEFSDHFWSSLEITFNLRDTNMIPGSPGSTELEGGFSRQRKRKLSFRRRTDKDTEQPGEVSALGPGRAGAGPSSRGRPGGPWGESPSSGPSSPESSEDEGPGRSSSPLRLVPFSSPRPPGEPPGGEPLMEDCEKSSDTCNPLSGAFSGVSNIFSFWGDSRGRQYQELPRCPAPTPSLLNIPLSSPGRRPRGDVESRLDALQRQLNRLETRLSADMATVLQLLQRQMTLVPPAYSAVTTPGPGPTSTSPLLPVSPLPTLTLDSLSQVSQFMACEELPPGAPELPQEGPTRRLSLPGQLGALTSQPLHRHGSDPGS
# test_description: hERG channel inhibition assay
# Assay type: cell-based
# condition_info: human, CHO cells stably expressing hERG, whole-cell patch-clamp
Item-by-item account of IC20

{"given_smiles": "C[C@@H]1CN(c2ccc(C#N)c3ncccc23)C[C@@H]2c3ccc(N4CC5CNCC(C4)O5)nc3CN12", "IC20": "> 10 µM"}
{"given_smiles": "[2H]c1ccc2c(N3C[C@@H](C)N4Cc5nc(N6CC[C@](C)(N)C6)ccc5[C@H]4C3)ccc(C#N)c2n1", "IC20": "5.5 µM"}
{"given_smiles": "[2H]c1ccc2c(N3C[C@@H](C)N4Cc5nc(N6CCC7(CNC7)C6)ccc5[C@H]4C3)ccc(C#N)c2n1", "IC20": "> 10 µM"}
{"given_smiles": "[2H]c1ccc2c(N3C[C@@H](C)N4Cc5nc(N6C[C@H]7C[C@@H]6CN7)ccc5[C@H]4C3)ccc(C#N)c2n1", "IC20": "> 10 µM"}
{"given_smiles": "C[C@@H]1CN(c2ccc(C#N)c3ncccc23)C[C@@H]2c3ccc(N4CCCNCC4)nc3CN12", "IC20": "> 10 µM"}
{"given_smiles": "[2H]c1ccc2c(N3C[C@@H](C)N4Cc5nc(N6CC[C@@](C)(N)C6)ccc5[C@H]4C3)ccc(C#N)c2n1", "IC20": "> 10 µM"}

Reference for the values: patent US12503471B2
